As shown below, each of these molecules has a reported log10 IC50 value.
# Target: human adrenergic-α2C receptor (Homo sapiens)
# Construct: expressed in transfected cells; host or cells: CHO cells, stably transfected; membranes
# Sequence (P18825 whole entry): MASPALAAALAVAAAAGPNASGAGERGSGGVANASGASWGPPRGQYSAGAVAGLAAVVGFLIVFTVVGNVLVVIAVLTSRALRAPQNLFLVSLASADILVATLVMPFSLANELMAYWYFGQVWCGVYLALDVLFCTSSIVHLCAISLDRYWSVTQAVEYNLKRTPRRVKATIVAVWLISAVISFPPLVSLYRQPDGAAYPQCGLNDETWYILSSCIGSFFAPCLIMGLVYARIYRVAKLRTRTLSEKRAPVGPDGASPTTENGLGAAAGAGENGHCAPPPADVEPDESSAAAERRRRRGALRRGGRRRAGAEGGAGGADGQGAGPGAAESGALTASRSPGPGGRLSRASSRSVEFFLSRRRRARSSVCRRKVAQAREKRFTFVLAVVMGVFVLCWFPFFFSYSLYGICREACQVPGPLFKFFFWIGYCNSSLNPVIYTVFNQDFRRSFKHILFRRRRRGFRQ
# Assay Remarks: Radioligand binding experiment for α2C-adrenoceptor ([3H]raulwolscine, CHO cell membranes)
# Run Parameters: [3H]raulwolscine 1 nM, membranes of CHO cells transfected with human α2C receptor; read-out: h-α2C pIC50 (converted)
On a log10 scale: recorded IC50, unit nM.

CC(C)(C)OC(=O)NCCCn1ccnc(NC2CCN(Cc3ccc(OCc4ccccc4)cc3)CC2)c1=O [Compound 11-3] ... 2.80
O=C(Cn1ccnc(NC2CCN(CC(c3ccccc3)c3ccccc3)CC2)c1=O)c1ccccc1 [Compound 9-10] ... 2.80
O=c1[nH]ccnc1N1CCN(Cc2cccc(-c3ccccc3)c2)CC1 [Compound 3-3] ... 2.50
NCc1ccc(Cn2ccnc(N3CCC(c4ccccc4)CC3)c2=O)cc1 [Compound 4-2] ... 2.90

Would you mind telling me what log10 IC50 value was observed for CC(C)(C)OC(=O)NCc1ccc(Cn2ccnc(N3CCC(c4ccccc4)CC3)c2=O)cc1 [Compound 4-3] ?
2.80

Please give the measured log10 IC50 for this molecule: O=c1c(NC2CCN(CCc3ccccc3)CC2)nccn1CCN1CCCCC1 [Compound 6-5]
2.50

Entry under review: O=c1c(N2CCN(Cc3ccccc3)CC2)nccn1C/C=C/c1ccccc1 [Compound 10-5] . Reported log10 IC50?
2.80

I'd like to know its log10 IC50. The molecule in question is O=C1c2ccccc2C(=O)N1CCCn1ccnc(NC2CCN(Cc3ccccc3)CC2)c1=O [Compound 5-5]
2.60

// lookup log10 IC50 for O=c1c(N2CCN(Cc3cccc(-c4ccccc4)c3)CC2)nccn1Cc1ccco1 [Compound 3-8]
2.50

Bench note: what log10 IC50 did CC(C)(C)OC(=O)NCc1ccc(Cn2ccnc(NC3CCN(CCCc4ccccc4)CC3)c2=O)cc1 [Compound 7-3] show?
2.60

Query (molecule): O=c1c(N2CCN(CCc3ccccc3)CC2)nccn1Cc1ccc2ccccc2c1 [Compound 10-10] ; field requested: log10 IC50
2.50

Name the recorded log10 IC50 for CN(CCc1ccccc1)C1CCN(c2nccn(CCCN3C(=O)c4ccccc4C3=O)c2=O)CC1 [Compound 8-1] .
1.40

Quick one: log10 IC50 of O=c1c(NC2CCN(CCc3ccccc3)CC2)nccn1Cc1ccccc1Br [Compound 6-7] ?
2.60

Given the molecule O=c1c(NC2CCN(Cc3ccc(OCc4ccccc4)cc3)CC2)nccn1Cc1ccc(Br)cc1 [Compound 11-7] , what is its reported log10 IC50?
2.80

// lookup log10 IC50 for O=c1c(N2CCN(CCc3ccccc3)CC2)nccn1C/C=C/c1ccccc1 [Compound 10-6]
2.70

Item under review: O=c1c(N2CCN(CCc3ccccc3)CC2)nccn1Cc1ccc(Cl)s1 [Compound 10-11] . Reported log10 IC50?
2.30

Need log10 IC50, item O=C1c2ccccc2C(=O)N1CCCn1ccnc(NC2CCN(Cc3ccc(-c4ccccc4)cc3)CC2)c1=O [Compound 1-4]
2.10

# lookup: log10 IC50 of CC(C)(C)OC(=O)NCc1ccc(Cn2ccnc(N3CCN(Cc4ccccc4)CC3)c2=O)cc1 [Compound 10-2]
2.50

Entry under review: O=c1c(NC2CCN(Cc3ccc(OCc4ccccc4)cc3)CC2)nccn1Cc1cccc(Br)c1 [Compound 11-6] . Reported log10 IC50?
2.90

Reported log10 IC50, molecule O=c1c(NC2CCN(Cc3ccc(-c4ccccc4)cc3)CC2)nccn1Cc1ccncc1 [Compound 1-10] : ____
2.90

log10 IC50 lookup needed for O=c1c(NC2CCN(CCCc3ccccc3)CC2)nccn1Cc1cccc(Br)c1 [Compound 7-12] , thanks.
2.70
